experimentalSystem: c-Src SH2
assayProtocol: SH2 binding enrichment of the phosphorylated peptide, bacterial display (enrichment ratio); higher = better substrate or ligand; peptides without Tyr show the background
metricName: SH2 binding enrichment

1. ILLAGCLVMVI [SLC28A3_Y113_Y113C]: 0.533
2. PYYASYPPSPD [GDAP2_Y491_T489A]: 1
3. ASYGPYTRVQS [FOXL2_Y258]: 2.89
4. FKEIVYAVSSD [DCX_Y70_G67E]: 0.742
5. ILGTYYETGSI [PAX2_Y73_R71T]: 1.4

I = TEDPEYDVQSK [PTCHD3_Y335]
II = SGVSFYINLCQ [IGF2R_Y2025_N2020S_YF]
III = ANVKWYRSGRE
IV = HEVHIYEKSGA [ARPC1B_Y35]
V = RPSRQYATLDV [SCAMP3_Y35]
[ask] Please list these sequences in decreasing order of SH2 binding enrichment. Provide the ranking by listing each label in its place in the requested order.
[reply] V, IV, II, I, III
(V: 9.6, IV: 2.29, II: 1.48, I: 0.557, III: 0.368)

P = RGFDTYFGYLL [ARSB_Y165]
Q = YRAPGYREVVI [TNS2_Y673]
R = FEGHSYSACTT [MMP9_Y241_R239H]
[ask] Provide the items ranked by increasing SH2 binding enrichment. Please list the labels according to the requested order.
[reply] P, Q, R

====

experimentalSystem: Grb2 SH2 (UniProt P62993)
assayProtocol: SH2 binding enrichment of the phosphorylated peptide, bacterial display (enrichment ratio); higher = better substrate or ligand; peptides without Tyr show the background
metricName: SH2 binding enrichment

Worked cases, answers included:
1) KICDWYQRQRP [KRT14_Y151_R148C]: 0.854
2) TVLEPYTDPFF [ZC3H18_Y367_A368T_YF]: 0.791
3) DLVHPYVHKIL [SF3B1_Y570_R568H]: 0.937
4) AKLDIYKRKVE [VWA3B_Y918_N916D]: 0.871
5) DRIVNYSRASI [ATP7A_Y1459]: 0.768

A = CTTIHYHFMCN [TP53_Y234_N235H_YF]
B = GRERPYGGGGG [FUS_Y526_R521G]
C = GGGMFYPLDLF
[ask] # rank_down: sort by SH2 binding enrichment, max first # the answer lists labels in the order requested
[reply] A, C, B

====

// reported phosphorylation enrichment per item
experimentalSystem: EPHB1 (UniProt P54762)
Sequence (P54762 whole entry, looked up): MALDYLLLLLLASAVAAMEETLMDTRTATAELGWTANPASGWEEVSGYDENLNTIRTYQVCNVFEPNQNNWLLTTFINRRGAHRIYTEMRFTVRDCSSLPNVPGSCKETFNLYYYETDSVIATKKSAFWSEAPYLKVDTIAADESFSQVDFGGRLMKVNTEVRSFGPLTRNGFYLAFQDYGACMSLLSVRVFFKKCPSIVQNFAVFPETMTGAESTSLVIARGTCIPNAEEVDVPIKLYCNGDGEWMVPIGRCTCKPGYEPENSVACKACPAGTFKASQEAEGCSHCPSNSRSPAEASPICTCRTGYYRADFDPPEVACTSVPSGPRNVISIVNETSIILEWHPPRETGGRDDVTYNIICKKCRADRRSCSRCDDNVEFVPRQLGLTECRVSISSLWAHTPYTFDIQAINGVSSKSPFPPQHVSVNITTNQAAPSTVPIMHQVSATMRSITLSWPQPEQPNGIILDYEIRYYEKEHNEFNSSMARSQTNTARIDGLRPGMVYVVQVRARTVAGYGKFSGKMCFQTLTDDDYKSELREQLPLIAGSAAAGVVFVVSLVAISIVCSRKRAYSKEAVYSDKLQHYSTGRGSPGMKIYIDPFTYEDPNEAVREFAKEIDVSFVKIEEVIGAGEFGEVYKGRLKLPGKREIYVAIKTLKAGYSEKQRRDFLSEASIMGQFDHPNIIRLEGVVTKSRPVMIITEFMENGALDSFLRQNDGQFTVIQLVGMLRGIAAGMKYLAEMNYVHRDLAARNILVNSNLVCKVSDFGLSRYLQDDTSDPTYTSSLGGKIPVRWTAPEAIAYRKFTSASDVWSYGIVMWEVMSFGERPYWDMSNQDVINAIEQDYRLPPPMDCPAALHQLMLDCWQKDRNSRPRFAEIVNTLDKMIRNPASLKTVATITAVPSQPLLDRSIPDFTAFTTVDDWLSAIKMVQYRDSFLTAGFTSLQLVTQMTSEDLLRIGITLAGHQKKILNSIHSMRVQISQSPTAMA
assayProtocol: phosphorylation enrichment, bacterial display (enrichment ratio); higher = better substrate or ligand; peptides without Tyr show the background
Keep the answer to the number alone.

1) LESTLYESSVV [TRPV4_Y91]: 1.41
2) FPILNYKDIRK [CFAP221_Y798_M795I]: 0.478
3) CNNFICGGCRG [SPINT2_Y163_Y163C]: 0.466
4) MWGSDYVQLSR [MAP3K4_Y582]: 9.41
5) ENGPYYASYPP [GDAP2_Y488_T489A]: 1.64
6) GEETDYTPVWC [UROD_Y30]: 0.587
7) TPIYPYLLPKS [PLD2_Y580_T577I]: 0.578
8) VNKGGYFSVNL [C3orf33_Y164_S160N]: 0.553
9) TSKLNYLDPRI [TOP1_Y723]: 4.39
10) PDNEPYIFKVF [PIK3AP1_Y553]: 0.684

[ask] Would you mind telling me what phosphorylation enrichment value was observed for KGPNVYKKTVN [REV3L_Y1156] ?
[reply] 0.307

[ask] Reported phosphorylation enrichment for FAKSVYWENTL [NUP107_Y296_YF] : what is it?
[reply] 0.554

[ask] Query (sequence): TEALYYTDDPA [ADPRS_Y75_T79P] ; field requested: phosphorylation enrichment
[reply] 1.2

[ask] Name the recorded phosphorylation enrichment for AFLGEYIPTVF [RAC2_Y32_P29L] .
[reply] 0.733

[ask] Recorded phosphorylation enrichment for CLLHCYFSQIR [MCM3AP_Y873] , please?
[reply] 0.497

[ask] phosphorylation enrichment for LYSNAYLNDLA [ALDH1A1_Y119] ?
[reply] 0.853

[ask] I would be grateful if you could share the reported phosphorylation enrichment for MCITQYERESQ [PRNP_Y218] .
[reply] 0.419

[ask] Entry FDDIAYIRKNL [PIK3CA_Y1021_T1025N] : reported phosphorylation enrichment = ?
[reply] 0.409

[ask] // lookup phosphorylation enrichment for SSPVLYLSPET [TJP1_Y931_P930L]
[reply] 1.14

====

phosphorylation enrichment overview
experimentalSystem: Fyn (UniProt P06241)
Sequence (P06241 whole entry, looked up): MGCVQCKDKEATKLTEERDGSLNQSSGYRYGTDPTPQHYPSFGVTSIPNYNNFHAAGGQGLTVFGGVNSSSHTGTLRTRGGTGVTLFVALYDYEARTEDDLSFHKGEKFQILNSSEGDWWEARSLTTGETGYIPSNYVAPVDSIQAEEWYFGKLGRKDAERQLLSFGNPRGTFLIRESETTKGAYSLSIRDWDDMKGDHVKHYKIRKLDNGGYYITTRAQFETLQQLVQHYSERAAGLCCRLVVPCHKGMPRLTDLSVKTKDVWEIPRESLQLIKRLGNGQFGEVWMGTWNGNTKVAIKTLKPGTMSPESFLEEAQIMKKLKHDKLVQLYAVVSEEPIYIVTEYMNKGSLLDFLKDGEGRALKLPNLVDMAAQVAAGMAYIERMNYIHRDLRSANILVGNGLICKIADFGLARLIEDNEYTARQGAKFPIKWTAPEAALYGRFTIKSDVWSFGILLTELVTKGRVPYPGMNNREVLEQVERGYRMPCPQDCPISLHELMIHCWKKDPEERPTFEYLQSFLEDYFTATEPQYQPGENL
assayProtocol: phosphorylation enrichment, bacterial display (enrichment ratio); higher = better substrate or ligand; peptides without Tyr show the background
Reply with just the number.

[ask] Using the record for DEIPLYLKGGV [COX7A2_Y44] , report its phosphorylation enrichment.
[reply] 0.492

[ask] What value of phosphorylation enrichment has been reported for the following sequence? QRKPSYNQLPS [BRCA2_Y71_A75P]
[reply] 0.599

[ask] For the sequence GLIPAYHWVIM [NMNAT1_Y64_R66W] , what phosphorylation enrichment is on record?
[reply] 0.503

[ask] # query: phosphorylation enrichment of entry PNKAVYTKMMT [G6PD_Y401_E398K]
[reply] 0.422

[ask] I'd like to know its phosphorylation enrichment. The sequence in question is PLDNLYAEPAV [PRPS1_Y146_V142L]
[reply] 2.13

[ask] Requested field: phosphorylation enrichment. Item: TLQSMYGCDVG [HLA-B_Y123]
[reply] 0.552

====

Here, each record is paired with measured phosphorylation enrichment data.
experimentalSystem: EPHB2 (UniProt P29323)
Sequence (P29323 whole entry, looked up): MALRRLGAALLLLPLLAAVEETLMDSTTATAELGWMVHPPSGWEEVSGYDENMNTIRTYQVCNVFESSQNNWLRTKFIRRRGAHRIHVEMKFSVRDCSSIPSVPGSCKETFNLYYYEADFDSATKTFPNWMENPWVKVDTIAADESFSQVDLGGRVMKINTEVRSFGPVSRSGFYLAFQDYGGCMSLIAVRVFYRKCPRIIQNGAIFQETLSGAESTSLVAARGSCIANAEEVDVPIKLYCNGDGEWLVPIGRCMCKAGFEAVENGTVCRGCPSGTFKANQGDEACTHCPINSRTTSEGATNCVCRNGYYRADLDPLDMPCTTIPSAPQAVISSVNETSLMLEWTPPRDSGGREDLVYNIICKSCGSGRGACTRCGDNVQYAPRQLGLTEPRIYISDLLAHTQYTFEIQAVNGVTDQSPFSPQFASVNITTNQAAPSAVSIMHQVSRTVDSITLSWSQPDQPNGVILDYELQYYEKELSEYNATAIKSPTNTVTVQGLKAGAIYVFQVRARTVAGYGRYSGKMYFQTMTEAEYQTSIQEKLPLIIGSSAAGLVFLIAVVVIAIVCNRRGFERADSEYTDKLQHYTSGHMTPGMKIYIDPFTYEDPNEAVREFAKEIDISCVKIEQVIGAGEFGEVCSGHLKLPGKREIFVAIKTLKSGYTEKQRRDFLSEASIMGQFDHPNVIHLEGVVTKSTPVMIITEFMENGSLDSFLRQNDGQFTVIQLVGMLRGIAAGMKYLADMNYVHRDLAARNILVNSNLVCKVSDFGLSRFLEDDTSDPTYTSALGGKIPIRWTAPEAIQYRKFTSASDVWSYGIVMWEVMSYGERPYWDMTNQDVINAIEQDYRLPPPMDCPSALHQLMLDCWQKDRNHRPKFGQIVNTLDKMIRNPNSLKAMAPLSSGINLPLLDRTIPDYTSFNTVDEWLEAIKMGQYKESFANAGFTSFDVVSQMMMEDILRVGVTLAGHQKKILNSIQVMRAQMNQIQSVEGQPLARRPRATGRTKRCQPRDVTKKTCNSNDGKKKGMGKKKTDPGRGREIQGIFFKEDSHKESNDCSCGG
assayProtocol: phosphorylation enrichment, bacterial display (enrichment ratio); higher = better substrate or ligand; peptides without Tyr show the background
Give the value as a plain number.

Example cases with answers are listed next.
1) RPLVVYPWTQR [HBB_Y36_L32P]: 0.695
2) ILTLKYPIKHG [ACTA1_Y71_E74K]: 0.518

Field: next sequence
[ask] # input sequence: GGFNNYGFGSD [HNRNPH3_Y159_N163S_YF] ; wanted: its phosphorylation enrichment
[reply] 0.812

====

experimentalSystem: FGFR1 (UniProt P11362)
Sequence (P11362 whole entry, looked up): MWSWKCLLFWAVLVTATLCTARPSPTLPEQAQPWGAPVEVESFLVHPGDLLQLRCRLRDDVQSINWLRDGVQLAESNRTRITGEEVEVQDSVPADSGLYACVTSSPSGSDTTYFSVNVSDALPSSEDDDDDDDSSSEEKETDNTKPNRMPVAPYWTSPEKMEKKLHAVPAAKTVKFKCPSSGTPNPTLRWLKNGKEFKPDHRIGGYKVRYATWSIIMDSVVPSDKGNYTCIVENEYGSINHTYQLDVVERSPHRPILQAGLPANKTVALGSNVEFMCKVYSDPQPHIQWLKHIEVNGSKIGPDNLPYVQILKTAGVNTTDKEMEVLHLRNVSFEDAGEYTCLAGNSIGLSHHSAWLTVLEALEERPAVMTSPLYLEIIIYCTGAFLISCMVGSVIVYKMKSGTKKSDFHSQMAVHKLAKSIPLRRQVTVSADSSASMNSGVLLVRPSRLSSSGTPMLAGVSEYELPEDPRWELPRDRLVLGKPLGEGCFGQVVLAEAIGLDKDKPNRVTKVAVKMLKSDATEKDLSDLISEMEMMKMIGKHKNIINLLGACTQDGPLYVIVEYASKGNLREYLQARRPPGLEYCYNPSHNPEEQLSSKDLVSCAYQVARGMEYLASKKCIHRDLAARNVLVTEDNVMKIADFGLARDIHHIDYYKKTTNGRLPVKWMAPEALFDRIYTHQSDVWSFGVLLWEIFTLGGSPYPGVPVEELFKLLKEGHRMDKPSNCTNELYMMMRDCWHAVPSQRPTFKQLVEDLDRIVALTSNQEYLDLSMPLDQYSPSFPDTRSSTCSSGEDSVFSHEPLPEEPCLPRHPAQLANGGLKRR
assayProtocol: phosphorylation enrichment, bacterial display (enrichment ratio); higher = better substrate or ligand; peptides without Tyr show the background
Catalogue of sequences with associated phosphorylation enrichment
Field format: numeric only.

Some solved cases for reference:
1) LIHLHYIRRDY [BBS4_Y43_K46R]: 0.417
2) PGLSSYGVPGS [FLNB_Y1530_A1534G]: 0.623
3) NNPAFYVLEGV [INPPL1_Y987_YF]: 0.653
4) AKGMKYVASKK [MET_Y1194_L1195V]: 0.415
5) EFLHKYKGFKI [SYNE1_Y6953_Q6951H_YF]: 0.397

[ask] For the sequence DEDEEYEYMNR [ERBB3_Y1197] , what phosphorylation enrichment is on record?
[reply] 0.511

[ask] Look up phosphorylation enrichment for this sequence: GSPAPYRRRKR [MBD1_Y403_P401A]
[reply] 0.596

====

experimentalSystem: SHP2-C SH2
assayProtocol: SH2 binding enrichment of the phosphorylated peptide, bacterial display (enrichment ratio); higher = better substrate or ligand; peptides without Tyr show the background
metricName: SH2 binding enrichment

The following sequences have reported results that may help.
1. SVVVPYGPPEV [TP53_Y220_E221G]: 0.671
2. KVDKEYEVRVR [GHR_Y226]: 1.06
3. FSKDIYKRVTG [PANK2_Y405_N404I_YF]: 0.598

a = PADCRYYAFPQ [GAMT_Y222]
b = FIGVTYKNEED [PDGFRA_Y993_YF]
[ask] Identify the entry with the smaller SH2 binding enrichment: a or b . Give the label under which the chosen entry appears.
[reply] b
(b: 0.571, a: 0.847)

A = AQVDTYCRHNY [HLA-DRB1_Y107_A103Q]
B = YGLQAYTKVKT [ALDH2_Y502_E504K]
[ask] Smaller SH2 binding enrichment value, A vs B ? Answer with the label corresponding to your selection.
[reply] A

====

experimentalSystem: c-Src SH2
assayProtocol: SH2 binding enrichment of the phosphorylated peptide, bacterial display (enrichment ratio); higher = better substrate or ligand; peptides without Tyr show the background
metricName: SH2 binding enrichment

Check out these entries, answers already filled in.
1) SHLSAYPALEG [CD5_Y465]: 0.618
2) ISSLRYKLLEE [TRPC6_Y896_E897K]: 0.513
3) QDEPTYARSSK [PEAK1_Y616_H611Q]: 0.561
4) PDKRIYQFTAA [SKAP2_Y197]: 0.645

a = TMEDSYRKQVV [KRAS_Y40_I36M]
b = RASDFYSQQMA [GBP6_Y334_A331S_YF]
c = QLQQAYQEAFE [YWHAZ_Y149_S145L]
d = KGPNVCKKTVN [REV3L_Y1156_Y1156C]
[ask] List by increasing SH2 binding enrichment. Returns: the labels listed in the requested order.
[reply] a, b, d, c
(a: 0.356, b: 0.649, d: 1.19, c: 2.03)
